From: ChEMBL document CHEMBL1201862

- Test system: SN12C
- assay_name: NCI tumour cell line growth inhibition, 48 h
The source made the active and inactive calls. Rule as the data show it: active = GI50 up to about 1.1 µM and inactive = higher.
Just give me one of these, please: TRUE for active, FALSE for inactive

Exercise: I'd appreciate the recorded outcome for CC1=C(C(=O)NNC(=O)CC#N)CC(C(=O)NNC(=O)CC#N)=C(C)N1 from this test.
Solution: FALSE

Exercise: What classification did S=C(Nc1ccccc1)Nc1[nH]c(=S)sc1-c1nc2ccccc2[nH]1 end up with in this test?
Solution: FALSE

Exercise: What did this assay record as the result for CSc1ncnc2c1ncn2C1CC(Oc2ccc(C)cc2)C(COc2ccc(C)cc2)O1 (centres undefined) ?
Solution: FALSE

----------
# GI50 per entry
- Test system: UACC-257
- assay_name: NCI tumour cell line growth inhibition, 48 h
Calls of active or inactive are those of the source. Rule as the data show it: active = GI50 up to about 1.1 µM and inactive = higher.

Some compounds with known GI50 results, for comparison:
COc1cc(/C=N/N=C2NCCN2)ccc1O | > 100 µM (inactive)
c1ccc(C(OCCN2CC3CCC(C2)N3)c2ccccc2)cc1 | 22.7 µM (inactive)
Nc1ncnc2c1cnn2COCC(O)CO (stereo unspecified) | > 100 µM (inactive)

Exercise: Given the compound COc1cc(C2C3=C(NC(=O)C2C#N)c2ccc4ccccc4c2OCC3)cc(OC)c1OC (stereo unspecified) , what is its reported GI50?
Solution: 56.5 µM (inactive)

Exercise: Tell me the measured GI50 of O=c1cccc2n1CC1CNC[C@H]2C1 , please.
Solution: > 100 µM (inactive)

Exercise: Dear colleague, I am looking for the recorded GI50 of the following compound: CC(=O)Oc1ccc2c(C)cc(=O)oc2c1
Solution: > 100 µM (inactive)

Exercise: Reported GI50 for COc1cc(/C=C2/SC(c3ccccc3)N(c3cccc(NC(C)=O)c3)C2=O)cc(OC)c1OC (stereo unspecified) : what is it?
Solution: 67.8 µM (inactive)

----------
- Test system: CCRF-CEM
- assay_name: NCI tumour cell line growth inhibition, 48 h
The source made the active and inactive calls. Cut-off read from the data, not from the text of the source: active = GI50 up to about 1.1 µM and inactive = higher.
A correct response names exactly one class from YES (active), NO (inactive)

CCOP(=O)(OCC)C(C#N)Cc1ccco1 (stereo not given) | NO
CCSC1=N/C(=C\c2ccco2)C(NN)=N1 | NO
O=C1CC(c2cccc(Cl)c2)Nc2ccc(N3CCCC3)cc21 (stereo not given) | YES
Cc1[nH]c2[nH]c(=S)nc(NC(N)=S)c2c1Cc1ccccc1 | NO

// next entry
Exercise: Per the records of this test, what outcome belongs to C[N+](C)(C)CC(CC(=O)[O-])C1CC1 (stereo not given) ?
Solution: NO

----------
Recorded GI50, one value per entry.
- Tested on: HCC 2998
- assay_name: NCI tumour cell line growth inhibition, 48 h
Calls of active or inactive are those of the source. Rule as the data show it: active = GI50 up to about 1.1 µM and inactive = higher.

Exercise: Item under review: OCCn1cnc2c(SCc3ccccc3)ncnc21 . Reported GI50?
Solution: > 100 µM (inactive)

----------
- System: HOP-62
- assay_name: NCI tumour cell line growth inhibition, 48 h
Activity calls are given as the source filed them. Cut-off read from the data, not from the text of the source: active = GI50 up to about 1.1 µM and inactive = higher.
Reported GI50 is given for each of the following compounds.

Use these answered entries as a reference point.
C[N+]1(C)[C@@H]2CC[C@H]1C[C@@H](OC(=O)C(CO)c1ccccc1)C2 (stereo partly specified) [ATROPINE METHYLBROMIDE] | > 100 µM (inactive)
O=c1oc2c(O)c(O)cc3c(=O)oc4c(O)c(O)cc1c4c23 | > 10 µM (inactive)
Cn1ccnc1CCc1c(Cl)cccc1Cl | > 100 µM (inactive)
Nc1ccc(C2SCC(=O)N2NS(=O)(=O)c2cccc(C(=O)O)c2)cc1 (stereo unspecified) | > 100 µM (inactive)
COc1cc2c(cc1OCCCCOc1cc3nc(C)nc(Cl)c3cc1OC)N=C[C@@H]1CCCN1C2=O | 2.67 µM (inactive)

Exercise: Request the reported GI50 associated with O=C1N[C@H](Cc2c[nH]cn2)C(=O)N2CCC[C@@H]12
Solution: > 100 µM (inactive)

Exercise: So what's the measured GI50 for this one? c1ccc(CN2CCC(Nc3ccccc3)(c3nnnn3Cc3ccccc3)CC2)cc1
Solution: 45.7 µM (inactive)

Exercise: Can you share its GI50? I mean this compound: COc1cccc(C23CCCC(C2)NCC3Br)c1OC (stereo unspecified)
Solution: 38 µM (inactive)
